- Read-out: Monokine induced gamma interferon (MIG), CXCL9 (gene 4283)
- RUN_DESCRIPTION: BSK_3C_MIG: BioMAP Diversity Plus: 3C Assay for Monokine induced gamma interferon (MIG) Biomarker Activity (AID 2283021)
- CONDITION_INFO: primary human endothelial cells (HUVEC); actives raise or lower the signal
Calls of active or inactive are those of the source. The calls were made as follows: active = hit-call score of the fitted dose curve at least 0.9, where 1 is the maximum; inactive = score below 0.9.
Answer with one of the outcomes given here: T for active, F for inactive

• O=C(Nc1ccccc1SSc1ccccc1NC(=O)c1ccccc1)c1ccccc1 = F

Please indicate how the test categorized CC(C)C(=O)C(C)C .
F

Please indicate how the test categorized CCCCCCCCc1ccc(Nc2ccc(CCCCCCCC)cc2)cc1 .
F

Please indicate how the test categorized CC(C)(c1cc(Br)c(OCCO)c(Br)c1)c1cc(Br)c(OCCO)c(Br)c1 .
T

Please indicate how the test categorized Nc1ccc(N)c(Cl)c1 .
F

Please indicate how the test categorized O=C(c1ccc(O)cc1)c1ccc(O)cc1O .
F

Source: PubChem BioAssay (EPA / NIEHS)
